B1: MYL5 (parent)
chain: DVAGNLDYKALSYVITHGEEKEE

Variants of: B1
assayInfo: protein stability index of a GFP-peptide fusion (GPS, HEK-293T) (PSI 1-6); higher = more stable;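 also: lentivirally expressed fusions sorted by FACS into six bins by GFP to DsRed ratio, PSI derived from sequencing read proportions per bin multiplied by bin number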
conditionParameters: c terminus: native
Classification field: enter 1 for protein stability index values not below 2, -1 for values below it.

Take a look at these entries with their results.
| variantDesignation | labelClass |
| --- | --- |
| D7P | -1 |
| A10P | 1 |
| N5F | -1 |
| E20S | -1 |
| E22P | 1 |
| V2S | -1 |

Hi, just wondering whether "V2G" shows protein stability index of 2 or higher.
1

Hi, just wondering whether "D1V" shows protein stability index of 2 or higher.
-1

Hi, just wondering whether "V14I" shows protein stability index of 2 or higher.
1
